These data points were gathered from patent US20110217237A1.

- TEST TARGET: mouse DLL4 on cells (mouse, UniProt Q9JI71 27-686)
- Sequence (Q9JI71 27-686): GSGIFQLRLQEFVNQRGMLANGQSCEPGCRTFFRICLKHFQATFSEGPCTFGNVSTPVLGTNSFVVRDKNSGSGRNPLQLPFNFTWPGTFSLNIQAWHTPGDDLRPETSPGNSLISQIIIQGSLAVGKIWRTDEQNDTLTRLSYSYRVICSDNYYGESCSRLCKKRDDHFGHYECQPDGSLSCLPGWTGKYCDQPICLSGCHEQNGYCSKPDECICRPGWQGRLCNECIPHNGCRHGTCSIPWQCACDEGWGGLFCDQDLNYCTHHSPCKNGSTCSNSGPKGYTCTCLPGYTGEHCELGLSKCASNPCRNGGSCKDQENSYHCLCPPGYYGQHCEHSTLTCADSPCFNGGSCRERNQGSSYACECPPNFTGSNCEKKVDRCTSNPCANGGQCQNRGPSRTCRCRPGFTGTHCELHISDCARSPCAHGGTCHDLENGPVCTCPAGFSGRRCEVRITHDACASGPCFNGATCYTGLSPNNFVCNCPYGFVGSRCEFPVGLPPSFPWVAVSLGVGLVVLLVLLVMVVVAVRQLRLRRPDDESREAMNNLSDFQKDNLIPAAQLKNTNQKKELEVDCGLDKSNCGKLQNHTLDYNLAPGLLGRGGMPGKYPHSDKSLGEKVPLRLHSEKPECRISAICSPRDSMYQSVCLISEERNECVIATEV
- TEST DETAILS: cell-based or functional assay
The reader will find reported Inhibition of Notch Activation via DLL4 cells, Notch reporter assay values listed item by item below.
METRIC NAME: Inhibition of Notch Activation via DLL4 cells, Notch reporter assay (nM)

[
  {
    "BINDER": "h1A11.A6 (antibody, V domains shown, also called h1A11.A6 VH / h1A11VL.1) VH: EVQLVESGGGLVQPGGSLRLSCAASGFTFRHFPMAWVRQAPGKGLEWVATISSSDAWPSYRDSVKGRFTISRDNAKNSLYLQMNSLRAEDTAVYYCSRGYYNSPFAYWGQGTLVTVSS VL: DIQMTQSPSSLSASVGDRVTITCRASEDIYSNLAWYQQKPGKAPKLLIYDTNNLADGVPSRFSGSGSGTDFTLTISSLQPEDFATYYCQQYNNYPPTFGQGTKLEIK",
    "MEASURED RESULT": 1.17
  },
  {
    "BINDER": "h1A11.G3 (antibody, V domains shown, also called h1A11.G3 VH / h1A11.E12 VL) VH: EVQLVESGGGLVQPGGSLRLSCAASGFTFRYFPMSWVRQAPGKGLEWVASISGSDGWASYRDSVKGRFTISRDNAKNSLYLQMNSLRAEDTAVYYCARGYYNSPFAYWGQGTLVTVSS VL: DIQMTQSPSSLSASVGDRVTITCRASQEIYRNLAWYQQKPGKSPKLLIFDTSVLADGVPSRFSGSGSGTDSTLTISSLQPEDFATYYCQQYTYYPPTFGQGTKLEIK",
    "MEASURED RESULT": 2.35
  },
  {
    "BINDER": "h1A11.F5 (antibody, V domains shown, also called h1A11.F5 VH / h1A11.E12 VL) VH: EVQLVESGGGLVQPGGSLRLSCAASGFTFRHFPMAWVRQAPGKGLEWVATISSSDAWPSYRDSVKGRFTISRDNAKNSLYLQMNSLRAEDTAVYYCARGYYNSPFAYWGQGTLVTVSS VL: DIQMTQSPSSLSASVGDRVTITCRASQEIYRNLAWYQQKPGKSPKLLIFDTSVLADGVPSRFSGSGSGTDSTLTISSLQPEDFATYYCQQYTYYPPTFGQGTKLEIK",
    "MEASURED RESULT": 0.649
  }
]
